Provenance of the data: patent US20060241172A1

Structures can show the parent of a compound that is named as a salt.

{"columns": ["compound", "melting point"],
 "data": [
  ["CNCC1COc2cccc(-c3cc(F)ccc3F)c2O1 (centres unmarked) (as salt: fumarate) [Compound I-29]", "193 to 194 °C"],
  ["NC[C@H]1COc2cc(Cl)cc(-c3cc(Cl)ccc3Cl)c2O1 (as salt: hydrochloride) [Compound I-67]", "205 to 207 °C"],
  ["CN(C)CC1COc2cccc(-c3ccccc3Cl)c2O1 (centres unmarked) (as salt: fumarate) [Compound I-38]", "196 to 197 °C"],
  ["NCC1COc2cccc(-c3ccccc3F)c2O1 (centres unmarked) (as salt: fumarate) [Compound I-2]", "188 to 190 °C"],
  ["Cc1cc(Cl)ccc1-c1cc(Cl)cc2c1O[C@@H](CN)CO2 (as salt: hydrochloride) [Compound I-65]", "110 °C"],
  ["NCC1Oc2cc(Cl)cc(-c3ccccc3-c3ccccc3)c2O1 (centres unmarked) (as salt: hydrochloride) [Compound I-101]", "196 to 198 °C"],
  ["NC[C@H]1COc2ccc(F)c(-c3ccccc3Cl)c2O1 (as salt: hydrochloride) [Compound I-71]", "208 to 210 °C"],
  ["Cc1cccc(-c2cccc3c2OC(CN)CO3)c1C (centres unmarked) (as salt: fumarate) [Compound I-10]", "204 to 205 °C"],
  ["CNCC1COc2cccc(-c3cccc(F)c3F)c2O1 (centres unmarked) (as salt: fumarate) [Compound I-27]", "181 to 182 °C"],
  ["NCC1COc2cccc(-c3ccccc3C(F)(F)F)c2O1 (centres unmarked) (as salt: fumarate) [Compound I-4]", "208 to 209 °C"],
  ["CNCC1COc2cccc(-c3ccccc3Cl)c2O1 (centres unmarked) (as salt: fumarate) [Compound I-21]", "174 to 175 °C"],
  ["CNCC1COc2cccc(-c3ccccc3F)c2O1 (centres unmarked) (as salt: fumarate) [Compound I-18]", "191 to 192 °C"],
  ["COc1ccccc1-c1cc(F)cc2c1OC(CN)O2 (centres unmarked) (as salt: hydrochloride) [Compound I-76]", "184 to 186 °C"],
  ["NCC1COc2cccc(-c3ccccc3Cl)c2O1 (centres unmarked) (as salt: fumarate) [Compound I-1]", "210 to 211 °C"],
  ["NCC1COc2cccc(-c3ccc(F)cc3F)c2O1 (centres unmarked) (as salt: fumarate) [Compound I-14]", "183 to 184 °C"],
  ["NCC1Oc2cc(F)cc(-c3cc(Cl)ccc3Cl)c2O1 (centres unmarked) (as salt: hydrochloride) [Compound I-81]", "204 to 205 °C"],
  ["C=CCNCC1COc2cccc(-c3ccc(Cl)cc3Cl)c2O1 (centres unmarked) (as salt: fumarate) [Compound I-40]", "167 to 168 °C"],
  ["COc1ccc(Cl)cc1-c1cc(Cl)cc2c1O[C@@H](CN)CO2 (as salt: hydrochloride) [Compound I-68]", "230 to 232 °C"],
  ["Cc1cccc(C)c1-c1cccc2c1OC(CN)CO2 (centres unmarked) (as salt: fumarate) [Compound I-12]", "205 to 206 °C"],
  ["NCC1COc2cccc(-c3cc(F)ccc3F)c2O1 (centres unmarked) (as salt: fumarate) [Compound I-15]", "189 to 190 °C"],
  ["COc1cccc(-c2cccc3c2OC(CN)CO3)c1OC (centres unmarked) (as salt: fumarate) [Compound I-9]", "198 to 199 °C"],
  ["NC[C@H]1COc2cc(F)cc(-c3c(Cl)cccc3Cl)c2O1 (as salt: salt) [Compound I-47]", "165 to 167 °C"],
  ["NCC1Oc2cc(Cl)cc(-c3cc(F)ccc3F)c2O1 (centres unmarked) (as salt: hydrochloride) [Compound I-99]", "> 250 °C"],
  ["COc1ccccc1-c1cccc2c1O[C@@](C)(CN)CO2 (as salt: fumarate) [Compound I-52]", "128 to 131 °C"],
  ["Clc1ccccc1-c1cccc2c1OC(CNCC1CC1)CO2 (centres unmarked) (as salt: fumarate) [Compound I-41]", "138 to 140 °C"],
  ["CNCC1COc2cccc(-c3cccc(C)c3C)c2O1 (centres unmarked) (as salt: fumarate) [Compound I-25]", "194 to 195 °C"],
  ["CN(C)CC1Oc2cc(F)cc(-c3ccccc3Cl)c2O1 (centres unmarked) (as salt: hydrochloride) [Compound I-89]", "211 to 212 °C"],
  ["NCC1COc2cccc(-c3cc(Cl)ccc3Cl)c2O1 (centres unmarked) (as salt: fumarate) [Compound I-8]", "206 to 207 °C"],
  ["COc1ccccc1-c1cccc2c1OC(CN)CO2 (centres unmarked) (as salt: fumarate) [Compound I-5]", "186 to 187 °C"],
  ["C[C@]1(CN)COc2cccc(-c3ccsc3)c2O1 (as salt: fumarate) [Compound I-53]", "158 to 161 °C"],
  ["NCC1Oc2cc(F)cc(-c3ccc(Cl)cc3)c2O1 (centres unmarked) (as salt: hydrochloride) [Compound I-79]", "262 to 264 °C"],
  ["NC[C@H]1COc2ccc(F)c(-c3ccc(Cl)cc3Cl)c2O1 (as salt: hydrochloride) [Compound I-75]", "65 °C"]
]}

* * *

Biological target: human serotonin 5-HT2C receptor (Homo sapiens)
Sequence (P28335 33-458): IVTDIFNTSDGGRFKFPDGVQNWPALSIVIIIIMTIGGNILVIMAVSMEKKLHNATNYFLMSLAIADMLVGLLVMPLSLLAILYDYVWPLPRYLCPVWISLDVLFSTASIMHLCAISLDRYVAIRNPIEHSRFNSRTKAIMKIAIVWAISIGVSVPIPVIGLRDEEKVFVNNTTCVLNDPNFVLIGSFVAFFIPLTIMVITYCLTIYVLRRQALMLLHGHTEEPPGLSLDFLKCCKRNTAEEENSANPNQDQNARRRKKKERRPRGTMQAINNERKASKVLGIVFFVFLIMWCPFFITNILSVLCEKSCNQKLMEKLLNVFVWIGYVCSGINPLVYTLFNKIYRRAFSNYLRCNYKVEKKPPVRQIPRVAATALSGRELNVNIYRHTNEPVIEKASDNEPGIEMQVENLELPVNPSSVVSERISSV

{"columns": ["compound", "target.system", "Kd"],
 "data": [
  ["COc1cc(CC(C)N)c(OC)cc1I (stereo not shown) [[^125I] DOI]", "human serotonin 5-HT2C receptor (Homo sapiens)", "0.4 nM"]
]}

* * *

Structures can show the parent of a compound that is named as a salt.

{"columns": ["compound", "melting point"],
 "data": [
  ["NCC1Oc2cc(F)cc(-c3cccc(Cl)c3)c2O1 (stereo not shown) (as salt: hydrochloride) [Compound I-78]", "267 to 270 °C"],
  ["NC[C@H]1COc2cccc(-c3c(Cl)cccc3Cl)c2O1 (as salt: salt) [Compound I-46]", "165 to 167 °C"],
  ["CNCC1COc2cccc(-c3cc(Cl)ccc3OC)c2O1 (stereo not shown) (as salt: fumarate) [Compound I-31]", "172 to 173 °C"],
  ["COc1ccc(Cl)cc1-c1cc(Cl)cc2c1OC(CN)O2 (stereo not shown) (as salt: hydrochloride) [Compound I-94]", "228 to 230 °C"]
]}

* * *

Biological target: human 5-HT2C receptor (Homo sapiens, UniProt P28335)
Sequence (P28335 33-458): as above
Assay: 5-HT2C receptor-stimulated calcium mobilization (FLIPR) in CHO cells
Assay type: cell-based
Conditions: CHO; read-out: 5-HT2C Function EMax (%)
Outcome label depends on Emax relative to 60%: at/above gives class 1, below gives class 0.

{"columns": ["compound", "qualitative.label"],
 "data": [
  ["NCC1Oc2cc(F)cc(-c3ccccc3C(F)(F)F)c2O1 (stereo not shown)", "class 1"],
  ["NCC1Oc2cc(F)cc(-c3ccccc3F)c2O1 (stereo not shown)", "class 1"],
  ["Cc1ccccc1-c1cc(F)cc2c1OC(CN)O2 (stereo not shown)", "class 1"],
  ["CNCC1COc2cccc(-c3ccccc3OC)c2O1 (stereo not shown)", "class 0"],
  ["NCC1Oc2cc(Cl)cc(-c3cc(Cl)ccc3Cl)c2O1 (stereo not shown)", "class 1"],
  ["CNCC1COc2cccc(-c3ccc(F)cc3F)c2O1 (stereo not shown)", "class 0"],
  ["NCC1COc2cccc(-c3ccc(F)cc3F)c2O1 (stereo not shown)", "class 1"],
  ["CC(C)NCC1COc2cccc(-c3ccc(Cl)cc3Cl)c2O1 (stereo not shown)", "class 0"]
]}

* * *

Counter-ions that a name gives are not always drawn.

{"columns": ["molecule", "melting point"],
 "data": [
  ["NCC1Oc2cc(F)cc(-c3ccccc3Cl)c2O1 (centres unmarked) (as salt: hydrochloride) [Compound I-84]", "192 to 194 °C"],
  ["Cc1ccccc1-c1cc(F)cc2c1OC(CN)O2 (centres unmarked) (as salt: hydrochloride) [Compound I-80]", "197 to 200 °C"],
  ["CCNCC1Oc2cc(F)cc(-c3ccccc3Cl)c2O1 (centres unmarked) (as salt: hydrochloride) [Compound I-88]", "182 to 183 °C"],
  ["Cc1cc(Cl)ccc1-c1cc(Cl)cc2c1OC(CN)O2 (centres unmarked) (as salt: hydrochloride) [Compound I-97]", "> 250 °C"],
  ["NC[C@H]1COc2cccc(-c3ccccc3Cl)c2O1 (as salt: fumarate) [Compound I-56]", "200 to 201 °C"],
  ["CNCC1Oc2cc(F)cc(-c3ccccc3Cl)c2O1 (centres unmarked) (as salt: hydrochloride) [Compound I-87]", "132 to 134 °C"],
  ["CN(C)CC1COc2cccc(-c3ccc(Cl)cc3Cl)c2O1 (centres unmarked) (as salt: fumarate) [Compound I-39]", "232 to 233 °C"],
  ["Cc1ccccc1-c1cccc2c1OC(CN)CO2 (centres unmarked) (as salt: fumarate) [Compound I-3]", "201 to 202 °C"]
]}
